// provenance: patent US20120045523A1

Property: IC50; scope: individual molecules
System: NCI-H1703 cells
Experiment: Number of living cells (MTS, CellTiter 96 AQueous One) after chemotherapy and/or poly(I:C)
Format: cell-based, human
Settings: Homo sapiens; NCI-H1703; chemotherapeutic agent used alone; 2 h exposure, then 70 h culture; read-out: IC50
Respond numerically; units are nM and should not be typed.

Below: 3 molecules and their reported IC50.
{"columns": ["molecule", "IC50 (nM)"],
 "data": [
  ["Nc1ccn([C@@H]2O[C@H](CO)[C@@H](O)C2(F)F)c(=O)n1", 900],
  ["CC(=O)O[C@H]1C(=O)[C@@]2(C)[C@H]([C@H](OC(=O)c3ccccc3)[C@]3(O)C[C@H](OC(=O)[C@H](O)[C@@H](NC(=O)c4ccccc4)c4ccccc4)C(C)=C1C3(C)C)[C@]1(OC(C)=O)CO[C@@H]1C[C@@H]2O", 120],
  ["COc1cccc2c1C(=O)c1c(O)c3c(c(O)c1C2=O)C[C@@](O)(C(=O)CO)C[C@@H]3O[C@H]1C[C@H](N)[C@H](O)[C@H](C)O1", 3730]
]}

Item COc1cc([C@@H]2c3cc4c(cc3[C@@H](O[C@@H]3O[C@@H]5CO[C@@H](C)O[C@H]5[C@H](O)[C@H]3O)[C@H]3COC(=O)[C@H]23)OCO4)cc(OC)c1O [Etoposide, etoposide] has what recorded IC50?
32700

###

Test system: NCI-H292 cells
Assay: Number of living cells (MTS, CellTiter 96 AQueous One) after chemotherapy and/or poly(I:C)
Settings: NCI-H292; agent in combination with poly(I:C); average CI
Lab note: anything with CI (combination index) at or over 0.7 counts as 1.0; the rest go in 0.0.

{"columns": ["molecule", "testSystem", "class"],
 "data": [
  ["N.N.[Cl][Pt][Cl] [Cisplatin, cisplatin]", "NCI-H292 cells", 0.0]
]}

# bool: CI (combination index) of Nc1ccn([C@@H]2O[C@H](CO)[C@@H](O)C2(F)F)c(=O)n1 >= 0.7
1.0

# bool: CI (combination index) of COc1cccc2c1C(=O)c1c(O)c3c(c(O)c1C2=O)C[C@@](O)(C(=O)CO)C[C@@H]3O[C@H]1C[C@H](N)[C@H](O)[C@H](C)O1 >= 0.7
0.0

# bool: CI (combination index) of O=c1[nH]cc(F)c(=O)[nH]1 >= 0.7
1.0

###

Test system: NCI-H292 cells
Experiment: Number of living cells (MTS, CellTiter 96 AQueous One) after chemotherapy and/or poly(I:C)
Conditions: Homo sapiens, NCI-H292, read-out: concentration of etoposide in combination that decreases living cells by 50%
metricName: IC50

Item COc1cc([C@@H]2c3cc4c(cc3[C@@H](O[C@@H]3O[C@@H]5CO[C@@H](C)O[C@H]5[C@H](O)[C@H]3O)[C@H]3COC(=O)[C@H]23)OCO4)cc(OC)c1O [Etoposide, etoposide] has what recorded IC50?
~8 µM

###

Property: pIC50; scope: individual molecules
Test system: NCI-H292 cells
Experiment: Number of living cells (MTS, CellTiter 96 AQueous One) after chemotherapy and/or poly(I:C)
Settings: NCI-H292; chemotherapeutic agent used alone; 2 h exposure, then 70 h culture
pIC50 here: minus log base 10 of the concentration, concentration in moles per litre.

{"columns": ["molecule", "measValue"],
 "data": [
  ["O=C1[O][Pt]2([NH][C@@H]3CCCC[C@H]3[NH]2)[O]C1=O [Oxaliplatin, oxaliplatin]", 3.91]
]}

API: the following record is the query input.
Observed pIC50 on NCI-H292 cells for N.N.[Cl][Pt][Cl] [Cisplatin, cisplatin] , please.
5.47
